- Tested on: MDA-MB-453
- protocol.details: drug sensitivity score (DSS), in combination with BLU9931 (DSS (weighted AUC score)); higher = more sensitive (stronger viability decrease); extreme values may be limits of the assay
- test.parameters: BLU9931 100 nM; 72 h
endpoint.label: drug sensitivity score
Number, no unit, nothing else.

                              record_smiles          endpoint_label  recorded_number
0  CC[C@H](CC#N)OC(=O)N[C@@H](C)c1cccc(NC(=O)Nc2ccc(-c3cnco3)c(OC)c2)c1  drug sensitivity score              3.2
1  Nc1ccn([C@@H]2O[C@H](CO)[C@@H](O)C2(F)F)c(=O)n1  drug sensitivity score                6

Please report the recorded drug sensitivity score for `C=CC(=O)Nc1cc2c(Nc3ccc(F)c(Cl)c3)ncnc2cc1OCCCN1CCOCC1` .
17.8

Repeat with `CC(C)N(CCCNC(=O)Nc1ccc(C(C)(C)C)cc1)C[C@H]1O[C@@H](n2cc(Br)c3c(N)ncnc32)[C@H](O)[C@@H]1O`
0.1

* * *

- Tested on: MDA-MB-453
- protocol.details: drug sensitivity score (DSS), single agent (DSS (weighted AUC score)); higher = more sensitive (stronger viability decrease); extreme values may be limits of the assay
- test.parameters: BLU9931 0 nM; 72 h
Values of drug sensitivity score greater than or equal to 5 map to fulfilled; values below map to not fulfilled.

Solved cases (3 shown):
compound	target.entity	class.name
CC/C(=C(\c1ccc(O)cc1)c1ccc(OCCN(C)C)cc1)c1ccccc1 [4-hydroxytamoxifen]	MDA-MB-453	not fulfilled
CC[C@@H]1[C@H](F)C(=O)N[C@@H]1COc1nccc2cc(C(N)=O)c(OC)cc12	MDA-MB-453	not fulfilled
O=S(=O)(c1cccc2c(O)nccc12)N1CCCNCC1 [Hydroxyfasudil]	MDA-MB-453	not fulfilled

Would you kindly look at the next entry?
Hello, I need to know if `C[C@H]1Oc2cc(cnc2N)-c2c(nn(C)c2C#N)CN(C)C(=O)c2ccc(F)cc21` has measured drug sensitivity score not below 5. Thanks!
not fulfilled

* * *

- Tested on: MDA-MB-453
- protocol.details: drug sensitivity score (DSS), single agent (DSS (weighted AUC score)); higher = more sensitive (stronger viability decrease); extreme values may be limits of the assay
- test.parameters: BLU9931 0 nM; 72 h
Reported values of drug sensitivity score for individual entries
Number, no unit, nothing else.

compound	drug sensitivity score
CNc1nc(-c2ccc3c(N)n[nH]c3c2)cc(N2C[C@@H](C(=O)NC3CCCCC3)CC[C@H]2C)n1	4.8

Please report the recorded drug sensitivity score for COc1ccc(COc2cc3oc(=O)c4cc(C(C)O)ccc4c3cc2OC)cc1 (centres undefined) .
2

Repeat with `CO[C@H]1C[C@@H]2CC[C@@H](C)[C@@](O)(O2)C(=O)C(=O)N2CCCC[C@H]2C(=O)O[C@H]([C@H](C)C[C@@H]2CC[C@@H](OC(=O)C(C)(CO)CO)[C@H](OC)C2)CC(=O)[C@H](C)/C=C(\C)[C@@H](O)[C@@H](OC)C(=O)[C@H](C)C[C@H](C)/C=C/C=C/C=C/1C`
10.3

Repeat with `NCCNc1ccc(NCCN)c2c1C(=O)c1ccncc1C2=O`
1

Repeat with `NCC(=O)Nc1ccc(-n2nc(C(F)(F)F)cc2-c2ccc3c(ccc4ccccc43)c2)cc1`
2.1

Repeat with `Cn1cc(-c2ccc(F)c(C(F)(F)F)c2)nc1C1CCN(c2ncnc3[nH]ncc23)CC1`
1.8

Repeat with `O=C(O)CNC(=O)c1c(O)c2ccccc2n(Cc2ccccc2)c1=O`
0

Origin of values: the supplement of paper PMC7224384
